Source: patent US20260097047A1

Overview of reported IC50 across a group of compounds:
# System: HCT116 cells
# test: Cell viability assay (CellTiter-Glo, 72 hours) in HCT116 human colorectal cancer cells
# Assay type: cell-based
# condition info: Table 8; analogs of scaffold drawing 43 defined by R^2, R^3, X/Y, W; read-out: Activity (IC50 class, cell viability assay)
readout kind: IC50

>>> value("CC#CCN1C(=O)c2ccc(F)cc2Sc2cc(NC(=O)c3ccc(OCF)cc3)ccc21")
"< 500 nM"
>>> value("CC#CCN1C(=O)c2ccccc2Sc2cc(NC(=O)C3CCC3)ccc21")
"< 500 nM"
>>> value("O=C(Nc1cnc2c(c1)Sc1ccccc1C(=O)N2CC#CC1CC1)C1CC2(COC2)C1")
"< 500 nM"
>>> value("O=C(Nc1cnc2c(c1)Sc1cc(Cl)ccc1C(=O)N2CC#CCl)C1CC1CO (stereo not drawn) [—CH2CCCl; trans-2-HOCH2-cPr; CCl/CH; N]")
"< 500 nM"

====

# Tested on: HCT116 cells
# test: Cell viability assay (CellTiter-Glo, 72 hours) in HCT116 human colorectal cancer cells
# Type: cell-based
# condition info: Table 7; cell viability assay, CellTiter-Glo, 72 hours; scaffold drawing 42 with R^2, R^3, X/Y, Z; read-out: Activity
pIC50: −log10 of the molar value.
readout kind: pIC50

>>> value("COCCN1C(=O)c2ccccc2Sc2cc(NC(=O)c3ccccc3OC)ccc21")
"> 6.30"
>>> value("C#CCOCCN1C(=O)c2ccc(F)cc2Sc2cc(NC(=O)c3ccc4scnc4c3)ccc21")
"> 6.30"
>>> value("C#CCOCCN1C(=O)c2ccccc2Cc2cc(NC(=O)c3ccc(OC)cc3)ccc21")
"> 6.30"
>>> value("C#CCOCCN1C(=O)c2ccccc2Sc2cc(NC(=O)c3ccc(OC)c(F)c3)ccc21")
"5.30 to 6.00"
>>> value("CCCC=CCN1C(=O)c2ccccc2Sc2cc(NC(=O)c3ccoc3)ccc21")
"> 6.30"
>>> value("C#CCOCCN1C(=O)c2ccccc2Sc2cc(NC(=O)c3ccc4scnc4c3)ccc21")
"> 6.30"
>>> value("COCCN1C(=O)c2ccccc2Sc2cc(NC(=O)c3ccc(CN)cc3)ccc21")
"5.30 to 6.00"
>>> value("COCCN1C(=O)c2ccccc2Sc2cc(NC(=O)c3ccno3)ccc21")
"5.30 to 6.00"

====

# Tested on: HCT116 cells
# test: Cell viability assay (CellTiter-Glo, 72 hours) in HCT116 human colorectal cancer cells
# Assay type: cell-based
# condition info: Table 7; cell viability assay, CellTiter-Glo, 72 hours; scaffold drawing 42 with R^2, R^3, X/Y, Z; read-out: Activity
pIC50: −log10 of the molar value.
readout kind: pIC50

>>> value("COCCN1C(=O)c2ccccc2Sc2cc(NC(=O)c3ccc(OC)cc3)ccc21")
"> 6.30"
>>> value("CNC(=O)c1cccc(C(=O)Nc2ccc3c(c2)Sc2ccccc2C(=O)N3CCOC)c1")
"5.30 to 6.00"
>>> value("COCCN1C(=O)c2ccccc2Sc2cc(NC(=O)C3CCC3)ccc21")
"6.00 to 6.30"
>>> value("C#CCOCCN1C(=O)c2ccccc2Sc2cc(NC(=O)c3ccoc3)ccc21")
"> 6.30"
>>> value("COCCN1C(=O)c2ccccc2Sc2cc(NC(=O)c3ccc(C)cc3)ccc21")
"5.30 to 6.00"
>>> value("COCCN1C(=O)c2ccccc2Sc2cc(NC(=O)c3ccc(OCF)cc3)ccc21")
"> 6.30"
>>> value("COCCN1C(=O)c2ccccc2Sc2cc(NC(C)=O)ccc21")
"5.30 to 6.00"
>>> value("COCCN1C(=O)c2ccccc2Sc2cc(NC(=O)C3CC(=O)C3)ccc21")
"5.30 to 6.00"
>>> value("C#Cc1cc(C(=O)Nc2ccc3c(c2)Sc2ccccc2C(=O)N3CCOC)ccn1")
"5.30 to 6.00"
>>> value("COCCN1C(=O)c2ccccc2Sc2cc(NC(=O)c3ccc(Cl)c(OC)c3)ccc21")
"6.00 to 6.30"
>>> value("COCCN1C(=O)c2ccccc2Cc2cc(NC(=O)c3ccoc3)ccc21")
"5.30 to 6.00"
>>> value("COCCN1C(=O)c2ccccc2Sc2cc(NC(=O)c3cc(C)oc3C)ccc21")
"5.30 to 6.00"
>>> value("C#Cc1ccc(C(=O)Nc2ccc3c(c2)Sc2ccccc2C(=O)N3CCOC)cc1")
"6.00 to 6.30"
>>> value("COCCN1C(=O)c2ccccc2Sc2cc(NC(=O)C3CCCCCC3)ccc21")
"5.30 to 6.00"

====

# System: HCT116 cells
# test: Cell viability assay (CellTiter-Glo, 72 hours) in HCT116 human colorectal cancer cells
# Format: cell-based
# condition info: Table 7; cell viability assay, CellTiter-Glo, 72 hours; scaffold drawing 42 with R^2, R^3, X/Y, Z; read-out: Activity
pIC50: −log10 of the molar value.
readout kind: pIC50

>>> value("COCCN1C(=O)c2ccccc2Sc2cc(NC(=O)c3cocn3)ccc21")
"5.30 to 6.00"
>>> value("C#CCOCCN1C(=O)c2ccccc2Sc2cc(NC(=O)c3cccc(CCC#N)c3)ccc21")
"> 6.30"
>>> value("COCCN1C(=O)c2ccccc2Sc2cc(NC(=O)c3cccc(C(=O)N(C)C)c3)ccc21")
"6.00 to 6.30"
>>> value("COCCN1C(=O)c2ccccc2Sc2cc(NC(=O)c3ccc(OC)cc3F)ccc21")
"6.00 to 6.30"
>>> value("COCCN1C(=O)c2ccccc2Sc2cc(NC(=O)c3ccncc3)ccc21")
"5.30 to 6.00"
>>> value("COCCN1C(=O)c2ccccc2Sc2cc(NC(=O)c3cscn3)ccc21")
"5.30 to 6.00"
>>> value("COCCN1C(=O)c2ccccc2Sc2cc(NC(=O)c3ccc(F)c(OC)c3)ccc21")
"6.00 to 6.30"
>>> value("COCCN1C(=O)c2cc(F)ccc2Sc2cc(NC(=O)c3ccoc3)ccc21")
"> 6.30"
>>> value("COCCN1C(=O)c2ccccc2Sc2cc(NC(=O)c3ccc(Cl)c(Cl)c3)ccc21")
"5.30 to 6.00"
>>> value("COCCN1C(=O)c2ccccc2Sc2cc(NC(=O)c3cccc(OCF)c3)ccc21")
"> 6.30"
>>> value("CC=CCN1C(=O)c2ccccc2Sc2cc(NC(=O)c3ccc4scnc4c3)ccc21")
"> 6.30"
>>> value("COCCN1C(=O)c2ccccc2Sc2cc(NC(=O)c3ccc(F)c(Cl)c3)ccc21")
"5.30 to 6.00"
>>> value("COCCN1C(=O)c2ccccc2Sc2cc(NC(=O)c3ccc4oc(=O)[nH]c4c3)ccc21")
"5.30 to 6.00"
>>> value("COCCN1C(=O)c2ccccc2Sc2cc(NC(=O)C3CC3)ccc21")
"5.30 to 6.00"
>>> value("COCCN1C(=O)c2ccccc2Sc2cc(NC(=O)c3ccc4ncoc4c3)ccc21")
"5.30 to 6.00"
>>> value("COCCN1C(=O)c2ccccc2Sc2cc(NC(=O)c3cccc(C(F)(F)F)c3)ccc21")
"5.30 to 6.00"
>>> value("COCCN1C(=O)c2ccccc2Sc2cc(NC(=O)c3cccc(CCC#N)c3)ccc21")
"> 6.30"
>>> value("CCCOCCN1C(=O)c2ccccc2Sc2cc(NC(=O)c3ccc(OC)cc3)ccc21")
"> 6.30"
>>> value("COCCN1C(=O)c2ccccc2Sc2cc(NC(=O)c3ccc4ocnc4c3)ccc21")
"> 6.30"
>>> value("COCCN1C(=O)c2ccccc2Sc2cc(NC(=O)c3ccc(NC=O)c(Cl)c3)ccc21")
"5.30 to 6.00"
>>> value("COCCN1C(=O)c2ccccc2Sc2cc(NC(=O)C3CCCCC3)ccc21")
"5.30 to 6.00"
>>> value("COCCN1C(=O)c2ccccc2Sc2cc(NC(=O)c3cccc(OC)c3)ccc21")
"> 6.30"
>>> value("CNC(=O)CCCCCN1C(=O)c2ccccc2Sc2cc(NC(=O)c3ccoc3)ccc21")
"5.30 to 6.00"
>>> value("COCCN1C(=O)c2ccccc2Sc2cc(NC(=O)c3ccc(OC(F)F)cc3)ccc21")
"6.00 to 6.30"
>>> value("COCCN1C(=O)c2ccccc2Sc2cc(NC(=O)c3ccc(OC)cc3C)ccc21")
"5.30 to 6.00"
>>> value("COCCN1C(=O)c2ccccc2Sc2cc(NC(=O)c3ccc4oc(=O)n(C)c4c3)ccc21")
"6.00 to 6.30"
>>> value("COCCN1C(=O)c2ccccc2Sc2cc(NC(=O)c3ccc(N=[N+]=[N-])cc3)ccc21")
"5.30 to 6.00"
>>> value("COCCN1C(=O)c2ccccc2Sc2cc(NC(=O)c3cccc(F)c3)ccc21")
"5.30 to 6.00"
>>> value("COCCN1C(=O)c2ccccc2Sc2cc(NC(=O)c3ccc(C(F)(F)F)cc3)ccc21")
"5.30 to 6.00"
